Provide the reported pIC50 of each item.
Molecular target: CYP11A1 (Homo sapiens, UniProt P05108)
Construct: human H295R adrenocortical carcinoma cell line was used as source of enzyme; endogenous in cells; host or cells: H295R human adrenocortical carcinoma cells
Sequence (P05108 40-521): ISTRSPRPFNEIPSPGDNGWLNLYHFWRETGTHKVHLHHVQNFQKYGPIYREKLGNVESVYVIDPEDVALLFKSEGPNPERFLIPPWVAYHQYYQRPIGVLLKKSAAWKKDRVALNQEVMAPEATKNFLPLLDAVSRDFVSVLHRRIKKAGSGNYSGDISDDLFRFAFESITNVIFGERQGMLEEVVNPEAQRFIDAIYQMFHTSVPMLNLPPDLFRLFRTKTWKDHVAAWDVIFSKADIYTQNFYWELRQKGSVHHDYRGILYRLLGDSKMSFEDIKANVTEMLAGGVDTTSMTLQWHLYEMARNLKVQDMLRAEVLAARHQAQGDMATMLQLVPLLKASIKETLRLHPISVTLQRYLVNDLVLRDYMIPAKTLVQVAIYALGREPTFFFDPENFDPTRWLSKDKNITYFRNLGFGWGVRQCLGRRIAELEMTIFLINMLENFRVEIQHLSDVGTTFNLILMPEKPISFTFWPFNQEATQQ
Test: CYP11A1 inhibition: modified isocaproic acid release assay (IARA) in H295R cells
Type: cell-based
Details: human H295R adrenocortical carcinoma cells treated three days, 3 nM [24,25-3H]-labelled cholesterol, 1% DMSO, 10 concentrations in duplicates; read-out: IC50 of the test compounds on CYP11A1 inhibition
pIC50: −log10 of the molar value.

// returns reported pIC50 for input O=c1cc(CN2Cc3ccccc3C2)occ1OCC1CCN(S(=O)(=O)N2CCCC2)CC1
6.52 to 6.82

And then CS(=O)(=O)c1ccc(COc2coc(CN3Cc4ccc(Cl)cc4C3)cc2=O)cc1 , what is it?
6.52 to 6.82

Next record, please: O=c1cc(CN2Cc3ccccc3C2)occ1OCc1ccc(-n2cc(Br)cn2)cc1
6.52 to 6.82

Another: Cn1nccc1S(=O)(=O)N1CCC(COc2coc(CN3Cc4ccccc4C3)cc2=O)CC1
> 6.82
